- PROCEDURE SUMMARY: A CellTox Green Cytotoxicity Assay to monitor cytotoxicity in HEK293 cells - 32 hour (AID 1224881); note: nearly all actives have a fitted effect of over 40% in size
- MEASUREMENT SETUP: CellTox Green fluorescence; series mostly up to 76.8 µM
Records with an inconclusive call do not appear. Calls of active or inactive are those of the source. Calls come from the whole dose curve; as a rule, active = well fitted activation curve with a large enough effect in the repeat runs; inconclusive = weak or mixed curves; inactive = flat fitted curve, though single readings scatter.
Pick from active, inactive when you respond.

Use these answered entries as a reference point.
> print(dat)
                                    compound  assigned.class
 1   CC1=CCC(C(C)(C)O)CC1 (stereo not drawn)        inactive
 2       CC(C)=CCCC(C)CCO (stereo not drawn)        inactive
 3            CN(C)CCC=C1c2ccccc2CCc2ccccc21        inactive
 4  C[C@]12CCC(=O)C=C1CC[C@@H]1[C@@H]2C(=O)C[C@@]2(C)[C@H]1CC[C@]2(O)C(=O)CO        inactive
 5      CCCCC(CC)COCC1CO1 (stereo not drawn)        inactive
 6                C=C(C)C(=O)OCCOC(=O)C(=C)C        inactive
 7                                 CCOCCOCCO        inactive
 8  CCCCC(CC)COP(=O)(OCC(CC)CCCC)OCC(CC)CCCC (stereo not drawn)        inactive
 9       Nc1ccc(S(=O)(=O)Nc2cnc3ccccc3n2)cc1        inactive
10                       c1cc(-c2ccncc2)ccn1        inactive

*Q* GET /call?item= `Cc1ccc(C(=O)c2cc(O)c(O)c([N+](=O)[O-])c2)cc1` returns the recorded outcome of this test.
*A* inactive

*Q* GET /call?item= C=C(C)C1CC=C(C)CC1 (stereo not drawn) returns the recorded outcome of this test.
*A* inactive

*Q* GET /call?item= `O=C(c1ccccc1)c1ccccc1O` returns the recorded outcome of this test.
*A* inactive

*Q* GET /call?item= `CN1C(C(=O)Nc2ccccn2)=C(O)c2ccccc2S1(=O)=O` returns the recorded outcome of this test.
*A* inactive

*Q* GET /call?item= `Oc1ccc(O)cc1` returns the recorded outcome of this test.
*A* inactive

*Q* GET /call?item= CC(C)CC(C)(O)C#CC(C)(O)CC(C)C (stereo not drawn) returns the recorded outcome of this test.
*A* inactive

*Q* GET /call?item= `CC(C)OC(=O)C(C)(C)Oc1ccc(C(=O)c2ccc(Cl)cc2)cc1` returns the recorded outcome of this test.
*A* inactive

*Q* GET /call?item= CCC(C)CO (stereo not drawn) returns the recorded outcome of this test.
*A* inactive

*Q* GET /call?item= `CCCCc1oc2ccccc2c1C(=O)c1cc(I)c(OCCN(CC)CC)c(I)c1` returns the recorded outcome of this test.
*A* active

*Q* GET /call?item= `C[Si](C)(C)O[Si](C)(C)C` returns the recorded outcome of this test.
*A* inactive

* * *

- PROCEDURE SUMMARY: qHTS assay for small molecule activators of the heat shock response signaling pathway (AID 743210);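 note: HeLa cells with beta-lactamase reporter driven by heat shock elements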
- MEASUREMENT SETUP: HeLa HSE-bla reporter, beta-lactamase ratio, 5 h; series mostly up to 62.6 µM
Records with an inconclusive call do not appear. The source made the active and inactive calls. Calls follow the shape of the dose curve; as a rule, active = well fitted activation curve with a large enough effect in the signal ratio in the repeat runs, with a control signal flat (not every such curve was filed as active); inconclusive = weak or mixed curves; inactive = flat fitted curve, though single readings scatter; the % refers to the signal ratio.
REPORTED ENDPOINT: outcome

Worked examples follow.
> print(dat)
                                   compound  reported.endpoint     value
1       Nc1ccc(S(=O)(=O)Nc2cnc3ccccc3n2)cc1            outcome  inactive
2   COC(C)COC(C)COC(C)CO (stereo not given)            outcome  inactive
3                           OC1CCCCCCCCCCC1            outcome  inactive
4  Cc1cc2nc3c(=O)[nH]c(=O)nc-3n(C[C@H](O)[C@H](O)[C@H](O)CO)c2cc1C            outcome  inactive
5      CC(CCC(=O)O)(c1ccc(O)cc1)c1ccc(O)cc1            outcome  inactive

Now for the compound whose outcome we want.
*Q* Quick one: give measured outcome for `O=C1c2cccc(O)c2C(=O)c2c(O)cccc21`
*A* inactive

The origin of these recorded values is PubChem BioAssay (Tox21).
